TARGET_UNDER_TEST: T1, VE-cadherin fragment (UniProt P33151 48-477, limits assumed)
T1 construct: also called VE-caherin; immobilized VE-cadherin fragment
T1 sequence (looked up): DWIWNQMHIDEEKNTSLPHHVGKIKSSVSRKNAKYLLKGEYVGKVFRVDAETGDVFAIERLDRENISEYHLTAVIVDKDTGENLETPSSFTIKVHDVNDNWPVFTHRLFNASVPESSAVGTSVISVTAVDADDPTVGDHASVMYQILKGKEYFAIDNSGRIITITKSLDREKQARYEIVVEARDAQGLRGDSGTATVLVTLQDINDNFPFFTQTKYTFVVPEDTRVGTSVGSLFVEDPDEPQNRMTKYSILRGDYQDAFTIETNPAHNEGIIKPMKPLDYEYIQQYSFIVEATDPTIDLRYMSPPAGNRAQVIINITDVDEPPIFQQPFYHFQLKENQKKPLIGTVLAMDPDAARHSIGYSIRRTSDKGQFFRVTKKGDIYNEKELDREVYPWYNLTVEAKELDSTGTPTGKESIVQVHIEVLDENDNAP
MEASUREMENT_PROTOCOL: not stated on the sheet; the legend calls it the dissociation constant for the interaction with VE-cadherin
pKd: −log10 of the molar value. No end group written: not given here.

BINDER	pKd
GHRPLDKKREEAPSLRPAPPPISGGGYRCG (also: homodimer, Cys43-Cys43 disulfide, Synthetic homodimer of two identical 30-residue chains, linked by a Cys43-Cys43 disulfide bond; also called dimeric (β15-44)2) [(β15-44)2 dimer peptide]	7.68
